# Tested on: Streptococcus pneumoniae
# testProtocol: In vitro antibacterial activity against Streptococcus pneumoniae strain 5649.
# Assay type: functional
propertyMeasured: MIC (µg/mL)

{"structure": "CC[C@H]1OC(=O)[C@H](C)[C@@H](O[C@H]2C[C@@](C)(OC)[C@@H](O)[C@H](C)O2)[C@H](C)[C@@H](O[C@@H]2O[C@H](C)C[C@H](N(C)C)[C@H]2O)[C@](C)(O)C[C@@H](C)C(=O)[C@H](C)[C@@H](O)[C@]1(C)O", "systemTested": "Streptococcus pneumoniae", "propertyMeasured": "MIC", "recordedValue": 16}
{"structure": "C=CCO[C@@]1(C)C[C@@H](C)C(=O)[C@H](C)[C@H]2NC(=O)O[C@]2(C)[C@@H](CC)OC(=O)[C@H](C)C(=O)[C@H](C)[C@H]1O[C@@H]1O[C@H](C)C[C@H](N(C)C)[C@H]1O", "systemTested": "Streptococcus pneumoniae", "propertyMeasured": "MIC", "recordedValue": 0.25}
{"structure": "CC[C@H]1OC(=O)[C@H](C)C(=O)[C@H](C)[C@@H](O[C@@H]2O[C@H](C)C[C@H](N(C)C)[C@H]2O)[C@](C)(OC/C=C/c2ccccc2)C[C@@H](C)C(=O)[C@H](C)[C@H]2NC(=O)O[C@@]21C", "systemTested": "Streptococcus pneumoniae", "propertyMeasured": "MIC", "recordedValue": 0.25}

* * *

# System: Streptococcus pyogenes
# testProtocol: In vitro antibacterial activity against Streptococcus pyogenes strain PIU 2548.
# Format: functional
propertyMeasured: log10 MIC (log10 of the value in µg/mL)

{"structure": "CC[C@H]1OC(=O)[C@H](C)C(=O)[C@H](C)[C@@H](O[C@@H]2O[C@H](C)C[C@H](N(C)C)[C@H]2O)[C@](C)(OCC=Cc2cnc3ccccc3c2)C[C@@H](C)C(=O)[C@H](C)[C@H]2NC(=O)O[C@@]21C", "systemTested": "Streptococcus pyogenes", "propertyMeasured": "log10 MIC", "recordedValue": -0.90}
{"structure": "C=CCO[C@@]1(C)C[C@@H](C)C(=O)[C@H](C)[C@@H](O)[C@](C)(O)[C@@H](CC)OC(=O)[C@H](C)C(=O)[C@H](C)[C@H]1O[C@@H]1O[C@H](C)C[C@H](N(C)C)[C@H]1O", "systemTested": "Streptococcus pyogenes", "propertyMeasured": "log10 MIC", "recordedValue": 1.51}
{"structure": "CC[C@H]1OC(=O)[C@H](C)C(=O)[C@H](C)[C@@H](O[C@@H]2O[C@H](C)C[C@H](N(C)C)[C@H]2O)[C@](C)(OC/C=C/c2ccccc2)C[C@@H](C)C(=O)[C@H](C)[C@H]2NC(=O)O[C@@]21C", "systemTested": "Streptococcus pyogenes", "propertyMeasured": "log10 MIC", "recordedValue": -0.60}
{"structure": "C=CCO[C@@]1(C)C[C@@H](C)C(=O)[C@H](C)[C@H]2NC(=O)O[C@]2(C)[C@@H](CC)OC(=O)[C@H](C)C(=O)[C@H](C)[C@H]1O[C@@H]1O[C@H](C)C[C@H](N(C)C)[C@H]1O", "systemTested": "Streptococcus pyogenes", "propertyMeasured": "log10 MIC", "recordedValue": 0.30}
{"structure": "CC[C@H]1OC(=O)[C@H](C)C(=O)[C@H](C)[C@@H](O[C@@H]2O[C@H](C)C[C@H](N(C)C)[C@H]2O)[C@@](C)(OC/C=C/c2cnc3ccccc3c2)C[C@@H](C)C(=O)[C@H](C)[C@@H](O)[C@]1(C)O", "systemTested": "Streptococcus pyogenes", "propertyMeasured": "log10 MIC", "recordedValue": -1.00}
{"structure": "CC[C@H]1OC(=O)[C@H](C)[C@@H](O[C@H]2C[C@@](C)(OC)[C@@H](O)[C@H](C)O2)[C@H](C)[C@@H](O[C@@H]2O[C@H](C)C[C@H](N(C)C)[C@H]2O)[C@](C)(O)C[C@@H](C)C(=O)[C@H](C)[C@@H](O)[C@]1(C)O", "systemTested": "Streptococcus pyogenes", "propertyMeasured": "log10 MIC", "recordedValue": 1.51}
{"structure": "CC[C@H]1OC(=O)[C@H](C)C(=O)[C@H](C)[C@@H](O[C@@H]2O[C@H](C)C[C@H](N(C)C)[C@H]2O)[C@](C)(OC/C=C/c2ccccc2)C[C@@H](C)C(=O)[C@H](C)[C@@H](O)[C@]1(C)O", "systemTested": "Streptococcus pyogenes", "propertyMeasured": "log10 MIC", "recordedValue": 0.30}
{"structure": "CC[C@H]1OC(=O)[C@H](C)C(=O)[C@H](C)[C@@H](O[C@@H]2O[C@H](C)C[C@H](N(C)C)[C@H]2O)[C@](C)(OC)C[C@@H](C)C(=O)[C@H](C)[C@H]2N(CCCCn3cnc(-c4cccnc4)c3)C(=O)O[C@]12C", "systemTested": "Streptococcus pyogenes", "propertyMeasured": "log10 MIC", "recordedValue": 0.30}

Source of measurements: ChEMBL document CHEMBL1132973
